- testedSystem: SARS-CoV-2 spike on pseudovirus or live virus (USA-WA1/2020, WT) (SARS-CoV-2, UniProt P0DTC2 14-1273)
- protocolDescription: cell-based or functional assay
parameterMeasured: PSV neutralization IC50 (µg/mL)
One number for each entry, in µg/mL.

Asked: Find the recorded PSV neutralization IC50 belonging to L6.dP02F01 (antibody, V domains shown, human IgG1) VH: EVQLVESGGGLVQPGRSLRLSCAASGFTFDDYAMHWVRQAPGKGLEWVSGISWNSGSIAFAGSVKGRFTISRDNAKNSLYLQMNSLRAEDTALYYCAKDQGYSYGNYFDYWGQGTLVTVSS VL: QLVLTQPPSVSVAPGKTARITCGGNNIGSKSVYWYQQKPGQAPVLVVYDDSDRPSGIPERFSGSNSGNTATLTISRVEAGDEADYYCQVWDSSSDHPYVFGSGTKVTVL and report it.
Given back: 1.09

All values here come from patent US20230357364A1.
